# targetOfAssay: T1, hK1 (human tissue kallikrein 1), recombinant (human, UniProt P06870 25-262)
# T1 construct: Expressed in P. pastoris from KLK1 cDNA and purified; enzymatically active; also called KLK1; Recombinant (Pichia) Kallikrein
# procedureText: SPR
property: kon

M0132-C01 (Fab, V domains shown) VH: EVQLLESGGGLVQPGGSLRLSCAASGFTFSRYLMWWVRQAPGKGLEWVSVIGPSGGWTRYADSVKGRFTISRDNSKNTLYLQMNSLRAEDTAVYYCARHPGDYWGQGTLVTVSS VL: AQSALTQPRSVSGSPGQSVTISCTGTGSNIDGYNYVSWYQQYPGNAPKLIIYDVGKRPSGVPNRFSGSKSGNTASLTISGLQAEDEADYYCCSYAGSYSYVFGVGTKVTVLG | 137000 M⁻¹ s⁻¹

Turning now to a further binder:
Enquiry: Specify measured kon for M0105-B06 (Fab, V domains shown) VH: EVQLLESGGGLVQPGGSLRLSCAASGFTFSHYAMGWVRQAPGKGLEWVSRIWPSGGHTQYADSVKGRFTISRDNSKNTLYLQMNSLRAEDTAMYYCATGYSSTWGAFDIWGQGTMVTVSS VL: DIQMTQSPSSLSASVGDRVTLTCRASQSIANYLNWYQQKPGKAPKLLVYAASRLHSGVPSRFSGRGSGTDFTLTITSLEPDDLATYYCQQSHASPLTFGGGTKVEIKR .
Return: 409000 M⁻¹ s⁻¹

Data credit: patent US7329737
